Provenance of the data: ChEMBL document CHEMBL1152807

Measurement Notes: Cmax in rat at 10 mg/kg, po
Format: ADME, organism-based
Parameters: dose 10 mg/kg, route oral
Measurement Context: in vivo

Smiles Entry	Cmax [ng/mL]
CCOc1cc([C@@H](CS(C)(=O)=O)N2C(=O)c3cccc(NC(C)=O)c3C2=O)ccc1OC	1100

====

Assayed Target: Phosphodiesterase 4 (Homo sapiens, UniProt P27815+Q08499+Q07343+Q08493)
Measurement Notes: Inhibition of human PDE4
Assay type: protein assay
Readout Kind: log10(IC50) (log10 of the value in µM)

Compound	log10(IC50)
CCOc1cc(C(CS(C)(=O)=O)N2C(=O)c3cccc(OC)c3C2=O)ccc1OC (racemic)	-0.16
CCOc1cc(C(CC(=O)O)N2C(=O)c3ccccc3C2=O)ccc1OC (stereo unspecified)	0.11
COC(=O)CC(c1ccc(OC)c(OC2CCCC2)c1)N1C(=O)c2ccccc2C1=O (stereo unspecified)	0.20
CCOc1cc(C(CS(C)(=O)=O)N2C(=O)c3cccc(C)c3C2=O)ccc1OC (racemic)	-1.17
CCOc1cc(C(CC#N)N2C(=O)c3ccccc3C2=O)ccc1OC (stereo unspecified)	-1.40
CCOc1cc(C(CC(N)=O)N2C(=O)c3ccccc3C2=O)ccc1OC (stereo unspecified)	0.28
